Just for reference, ChEMBL document CHEMBL6153175 is where these values come from.

# Target desc: Potassium channel subfamily K member 2 (Homo sapiens, UniProt O95069)
# Sequence (O95069 whole entry): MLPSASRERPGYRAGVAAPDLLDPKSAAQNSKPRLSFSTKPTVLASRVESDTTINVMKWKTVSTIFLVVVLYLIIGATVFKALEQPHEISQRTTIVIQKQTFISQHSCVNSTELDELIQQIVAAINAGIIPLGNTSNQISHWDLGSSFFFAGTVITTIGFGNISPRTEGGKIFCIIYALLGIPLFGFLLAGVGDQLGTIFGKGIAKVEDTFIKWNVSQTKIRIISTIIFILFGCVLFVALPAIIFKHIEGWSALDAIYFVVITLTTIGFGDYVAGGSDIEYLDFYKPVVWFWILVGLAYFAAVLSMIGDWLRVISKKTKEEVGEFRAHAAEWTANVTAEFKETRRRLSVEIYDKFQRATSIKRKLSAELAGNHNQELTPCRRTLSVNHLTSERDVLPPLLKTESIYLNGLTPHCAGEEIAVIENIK
# Assay notes: Inhibition of human TREK1 channel expressed in HEK293 cells cotransfected with EYFP at -80 mV holding potential by whole-cell patch clamp assay
# Type: cell-based
pIC50: −log10 of the molar value.
Metric name: pIC50

[[record]]
chemical_smiles = "CN1CCN(C2=Nc3ccccc3Oc3ccc(Cl)cc32)CC1"
result_number = 5.74

[[record]]
chemical_smiles = "O=C(CCCN1CCC(O)(c2ccc(Cl)cc2)CC1)c1ccc(F)cc1"
result_number = 5.74


----------
# Target desc: Potassium channel subfamily K member 2 (Homo sapiens, UniProt O95069)
# Assay notes: Inhibition of human TREK1 channel expressed in HEK293 cells at +20 mV to -80 mV holding potential by whole-cell patch clamp assay
# Format: cell-based
Metric name: IC50 (µM)
Please state the figure in µM; there is no need to write the unit.

Answered examples (5):
[[record]]
molecule = "Cc1ccccc1CC1OC(=O)c2cc(N3CCNCC3)ccc21 (stereo unspecified)"
metric_name = "IC50"
result_number = 13.1

[[record]]
molecule = "COc1ccc(CC2OC(=O)c3cc(N4CCNCC4)ccc32)c(C)c1 (stereo unspecified)"
metric_name = "IC50"
result_number = 9.93

[[record]]
molecule = "Cc1ccccc1CC1OC(=O)c2cc(N3CCN(C)CC3)ccc21 (stereo unspecified)"
metric_name = "IC50"
result_number = 11.5

[[record]]
molecule = "Cc1cc(F)ccc1CC1OC(=O)c2cc(N3CCNCC3)ccc21 (stereo unspecified)"
metric_name = "IC50"
result_number = 6.48

[[record]]
molecule = "CCc1ccccc1CC1OC(=O)c2cc(N3CCNCC3)ccc21 (stereo unspecified)"
metric_name = "IC50"
result_number = 40.4


Turning now to a further molecule:
Query: Item Cc1ccc(CC2OC(=O)c3cc(N4CCNCC4)ccc32)c(C)c1 (stereo unspecified) has what recorded IC50?
Result: 4.35
